Values compiled from ChEMBL document CHEMBL1201862.

- Test system: ACHN
- experimental details: NCI tumour cell line growth inhibition, 48 h
The source made the active and inactive calls. Cut-off read from the data, not from the text of the source: active = GI50 up to about 1.1 µM and inactive = higher.
Give your call using only these classes: active, inactive

For orientation, consider the following solved cases.
# compound, answer label
records = [
    ("O=C(OCc1ccccc1CN1CCOCC1)c1cccc(Br)c1", "inactive"),
    ("Nc1nc(N)c(C2=CCN(Cc3ccccc3)CC2)c(=O)[nH]1", "inactive"),
    ("OCC1CCCC(n2cnc3c(S)ncnc32)O1 (stereo unspecified)", "inactive"),
    ("CCCCCCCCCC(=O)N[C@H]1CCc2cc(OC)c(OC)c(OC)c2-c2ccc(SC)c(=O)cc21", "active"),
    ("CCOC(=O)/C=C(/C(=O)OCC)n1cc(C)c(=O)[nH]c1=O", "inactive"),
    ("C[Si]12OCCCN(CCO1)CCO2", "inactive"),
    ("N#CC1=C(N)N(c2ccccc2)C(c2ccco2)C1(C#N)C#N (stereo unspecified)", "inactive"),
    ("Cc1ccc(NC(=O)CC(=O)n2nc(-c3ccccc3)c(/N=N/c3ccc(Cl)cc3)c2-c2ccccc2)cc1", "inactive"),
]

Exercise: For this compound, state the assay outcome: O=C1c2ccccc2OCC12OC21C=CC(Cl)=CC1 (stereo unspecified)
Key: inactive

Exercise: For this compound, state the assay outcome: C=C1C(=O)OC2CC(C)C(/C=C/C(C)=O)=CCC12 (stereo unspecified)
Key: inactive

Exercise: For this compound, state the assay outcome: OC1CN(OC/C=C/c2ccccc2)CC(O)C1O (stereo unspecified)
Key: inactive

* * *

- System: HOP-62
- experimental details: NCI tumour cell line growth inhibition, 48 h
Active and inactive are the calls of the source. Rule as the data show it: active = GI50 up to about 1.1 µM and inactive = higher.
Give your call using only these classes: Yes = active, No = inactive

For orientation, consider the following solved cases.
# molecule, answer label
measured = [
    ("CC1=NN(c2ccccc2)C(=O)C1C(=O)C(=O)Nc1ccc(C)cc1C (stereo unspecified)", "No"),
    ("CC(C)C(=O)C(C)(C)CCc1ccccn1", "No"),
    ("CCCc1cn2c(/C=N/NC(=N)N)c(-c3ccc(Cl)c([N+](=O)[O-])c3)nc2s1", "No"),
    ("NC(Cc1ccccc1)C(=O)O (stereo unspecified)", "No"),
    ("COC(=O)C(=O)C(C(=O)C(=O)Nc1ccc([N+](=O)[O-])cc1)c1nc2ccccc2nc1O (stereo unspecified)", "No"),
    ("COc1ccc(-c2oc(/C=N/c3ccccc3)c([N+](=O)[O-])c2-c2ccc(OC)c(OC)c2)cc1OC", "No"),
]

Exercise: For this molecule, state the assay outcome: Cc1ccc(S(=O)(=O)OC(C=O)C(O)C(O)COC(c2ccccc2)(c2ccccc2)c2ccccc2)cc1 (stereo unspecified)
Key: No

Exercise: For this molecule, state the assay outcome: Cc1cc(Cl)ccc1OCC(=O)Nc1nc(N)nc(N)n1
Key: No

Exercise: For this molecule, state the assay outcome: NNC(=O)N/N=C1\CNC(=O)C(=O)C1c1nc2ccccc2s1 (stereo unspecified)
Key: No

Exercise: For this molecule, state the assay outcome: CCCCCCCCCC(=O)N[C@H]1CCc2cc(OC)c(OC)c(OC)c2-c2ccc(SC)c(=O)cc21
Key: Yes

Exercise: For this molecule, state the assay outcome: NC(CCSCCF)C(=O)O (stereo unspecified)
Key: No
